Sourced from patent EP1073891B1

ASSAYED_SYSTEM: ERα (Homo sapiens)
Sequence (P03372 1-595): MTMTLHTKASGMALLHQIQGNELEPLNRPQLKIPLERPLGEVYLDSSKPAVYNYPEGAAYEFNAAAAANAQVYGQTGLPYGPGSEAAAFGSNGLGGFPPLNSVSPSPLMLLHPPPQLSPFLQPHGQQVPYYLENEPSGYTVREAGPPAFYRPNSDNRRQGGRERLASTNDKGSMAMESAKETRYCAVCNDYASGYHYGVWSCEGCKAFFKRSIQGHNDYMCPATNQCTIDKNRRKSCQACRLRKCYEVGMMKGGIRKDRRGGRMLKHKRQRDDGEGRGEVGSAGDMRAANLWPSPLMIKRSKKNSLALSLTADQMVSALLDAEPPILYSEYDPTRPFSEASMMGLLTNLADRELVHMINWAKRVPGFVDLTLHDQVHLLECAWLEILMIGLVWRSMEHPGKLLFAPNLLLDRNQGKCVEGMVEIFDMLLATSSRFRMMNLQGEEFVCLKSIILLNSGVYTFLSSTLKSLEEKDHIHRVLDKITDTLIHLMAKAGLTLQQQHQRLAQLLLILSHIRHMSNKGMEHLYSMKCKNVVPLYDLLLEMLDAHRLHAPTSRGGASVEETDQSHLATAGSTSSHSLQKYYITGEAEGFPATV
METHOD_DESCRIPTION: Phage ELISA / fingerprint on ER immobilized on biotinylated ERE (Examples 2.3-2.5)
Assay type: binding
Parameters: purchased PanVera Corporation, Madison, WI; key: semiquantitative scale of 0 to 7+; 1+: semiquantitative scale of 0 to 7+; 2+: semiquantitative scale of 0 to 7+; 3+: semiquantitative scale of 0 to 7+; 4+: semiquantitative scale of 0 to 7+; 5+: semiquantitative scale of 0 to 7+; 6+: semiquantitative scale of 0 to 7+; semiquantitative scale of 0 to 7+
STATED_CONDITIONS: ERα and buffer
ASSAY_READOUT: binding activity, ERα and buffer

Answered cases to consult:
Query string: Quick one: binding activity, ERα and buffer for SRLPPSVFSMCGSEVCLSR [Peptide 9t-β] ?
Result string: 3+

Query string: Also check SSRLVPHSFWLDGLMHGSR [Peptide 21t-β]
Result string: 3+

Kindly review the next sequence as well.
Query string: Need binding activity, ERα and buffer, item SSKLYCLLDESYCSR [Peptide 21b-β]
Result string: 6+

====

ASSAYED_SYSTEM: ERα (Homo sapiens, UniProt P03372)
Sequence (P03372 1-595): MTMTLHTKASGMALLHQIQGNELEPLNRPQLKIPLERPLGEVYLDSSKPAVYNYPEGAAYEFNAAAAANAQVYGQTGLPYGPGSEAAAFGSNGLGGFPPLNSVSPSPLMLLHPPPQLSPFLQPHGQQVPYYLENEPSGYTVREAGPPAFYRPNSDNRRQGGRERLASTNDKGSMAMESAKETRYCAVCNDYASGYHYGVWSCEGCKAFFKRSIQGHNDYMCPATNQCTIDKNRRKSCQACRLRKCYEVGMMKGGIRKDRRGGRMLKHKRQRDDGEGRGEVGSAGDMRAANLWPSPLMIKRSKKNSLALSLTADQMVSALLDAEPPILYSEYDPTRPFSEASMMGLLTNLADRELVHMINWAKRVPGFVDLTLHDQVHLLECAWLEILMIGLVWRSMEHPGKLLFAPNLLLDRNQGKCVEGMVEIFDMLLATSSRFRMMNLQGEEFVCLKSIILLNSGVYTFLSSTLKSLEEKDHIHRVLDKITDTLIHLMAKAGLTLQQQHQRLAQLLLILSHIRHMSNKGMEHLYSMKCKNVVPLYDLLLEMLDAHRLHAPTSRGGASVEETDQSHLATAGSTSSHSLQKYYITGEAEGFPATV
METHOD_DESCRIPTION: Phage ELISA / fingerprint on ER immobilized on biotinylated ERE (Examples 2.3-2.5)
Assay type: binding
Set-up: purchased PanVera Corporation, Madison, WI; key: semiquantitative scale of 0 to 7+; 1+: semiquantitative scale of 0 to 7+; 2+: semiquantitative scale of 0 to 7+; 3+: semiquantitative scale of 0 to 7+; 4+: semiquantitative scale of 0 to 7+; 5+: semiquantitative scale of 0 to 7+; 6+: semiquantitative scale of 0 to 7+; semiquantitative scale of 0 to 7+
STATED_CONDITIONS: ERα and tamoxifen (4-OH tamoxifen, 1 µM)
Each item that follows carries a reported binding activity, ERα and tamoxifen.

Consider the worked cases shown below.
Query string: Query: binding activity, ERα and tamoxifen; subject: SRNLLCLLDQEACSR [Peptide 17E-β]
Result string: 4+

Query string: One more sequence: SSSLGPWRLSELESR [Peptide 16b-β]
Result string: 3+

Query string: Could you do the same for SSWNSREFFLSQLSR [Peptide 5t-β] , please?
Result string: 5+

Query string: What about this sequence? SSDLHRDCLGVWCLSR [Peptide 17t-β]
Result string: 2+

Next:
Query string: Find the recorded binding activity, ERα and tamoxifen belonging to SSTSWLHHYLMGTSR [Peptide 8b-β] and report it.
Result string: 2+

====

ASSAYED_SYSTEM: ERβ (Homo sapiens, UniProt Q92731)
Sequence (Q92731 whole entry): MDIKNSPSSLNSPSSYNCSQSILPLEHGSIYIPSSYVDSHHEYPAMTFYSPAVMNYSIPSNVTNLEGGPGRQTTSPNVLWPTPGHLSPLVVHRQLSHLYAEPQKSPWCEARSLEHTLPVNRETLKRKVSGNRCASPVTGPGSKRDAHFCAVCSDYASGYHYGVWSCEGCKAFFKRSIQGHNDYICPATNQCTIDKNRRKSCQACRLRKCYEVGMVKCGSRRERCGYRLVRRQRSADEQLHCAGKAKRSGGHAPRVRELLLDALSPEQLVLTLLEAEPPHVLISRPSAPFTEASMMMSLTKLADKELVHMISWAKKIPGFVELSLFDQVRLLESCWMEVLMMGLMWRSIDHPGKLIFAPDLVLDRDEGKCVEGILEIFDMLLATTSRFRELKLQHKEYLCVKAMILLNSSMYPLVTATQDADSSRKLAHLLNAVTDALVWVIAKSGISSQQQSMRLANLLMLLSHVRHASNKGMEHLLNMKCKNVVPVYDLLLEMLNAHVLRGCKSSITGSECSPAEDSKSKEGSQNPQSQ
METHOD_DESCRIPTION: Phage ELISA / fingerprint on ER immobilized on biotinylated ERE (Examples 2.3-2.5)
Type: binding
Parameters: purchased PanVera Corporation, Madison, WI; key: semiquantitative scale of 0 to 7+; 1+: semiquantitative scale of 0 to 7+; 2+: semiquantitative scale of 0 to 7+; 3+: semiquantitative scale of 0 to 7+; 4+: semiquantitative scale of 0 to 7+; 5+: semiquantitative scale of 0 to 7+; 6+: semiquantitative scale of 0 to 7+; semiquantitative scale of 0 to 7+
STATED_CONDITIONS: ERβ and Estradiol (1 µM)
Some sequences, each annotated with its measured binding activity, ERβ and Estradiol.

Check out these entries, answers already filled in.
Query string: # query: binding activity, ERβ and Estradiol of entry SSGPFYVGGMLWPADCLSR [Peptide 10t-β]
Result string: 2+

Query string: Now try SSIKDFPNLISLLSR [Peptide 12E-β] .
Result string: 7+

Query string: Okay, and SRPYCLGDVWCLDSR [Peptide 2t-β] ?
Result string: 6+

Query string: Can you handle SSARPWWLQFEGSSR [Peptide 7t-β] next?
Result string: 7+

Query string: And then SSQWQAPWWYIDASR [Peptide 32E-β] , what is it?
Result string: 7+

Query string: Would you kindly repeat that for SSGSSAGRLMMLLQDGVSR [Peptide 13E-β] ?
Result string: 6+

Further cases:
Query string: Recorded binding activity, ERβ and Estradiol of SYSKEWFEERLNSR [Peptide 4b-β] , please.
Result string: 3+

Query string: Queued: SSIPPRSWWLSQLSR [Peptide 19b-β]
Result string: 6+

Query string: Also check SRLNGVFCHDSSDLWVCSR [Peptide 18t-β]
Result string: 3+

Query string: Now try SSWDFRVPWWYNNSR [Peptide 31E-β] .
Result string: 7+

Query string: Also SSRTLYCHLTSSNPEWCSR [Peptide 27E-β] , if possible.
Result string: 7+

====

ASSAYED_SYSTEM: ERβ (Homo sapiens, UniProt Q92731)
METHOD_DESCRIPTION: Phage ELISA / fingerprint on ER immobilized on biotinylated ERE (Examples 2.3-2.5)
Assay type: binding
Design: purchased PanVera Corporation, Madison, WI; key: semiquantitative scale of 0 to 7+; 1+: semiquantitative scale of 0 to 7+; 2+: semiquantitative scale of 0 to 7+; 3+: semiquantitative scale of 0 to 7+; 4+: semiquantitative scale of 0 to 7+; 5+: semiquantitative scale of 0 to 7+; 6+: semiquantitative scale of 0 to 7+; semiquantitative scale of 0 to 7+
STATED_CONDITIONS: ERβ and tamoxifen (4-OH tamoxifen, 1 µM)
ASSAY_READOUT: binding activity, ERβ and tamoxifen

Solved cases (5 shown):
Query string: Param item = SSVFTIMDGKVALSR [Peptide 1t-β] ; retrieve measured binding activity, ERβ and tamoxifen.
Result string: 7+

Query string: For SRNLLCLLDQEACSR [Peptide 17E-β] then?
Result string: 1+

Query string: Next sequence: SSRTLLEHYLLGGSR [Peptide 20E-β]
Result string: 2+

Query string: What do you get for SSILERLLGGGSAETV [Peptide 9E-β] ?
Result string: 1+

Query string: Now try SSWDFRVPWWYNNSR [Peptide 31E-β] .
Result string: 2+

Others:
Query string: Look up binding activity, ERβ and tamoxifen for this sequence: SYSKEWFEERLNSR [Peptide 4b-β]
Result string: 3+

Query string: Now the same for SSDTRSRLYELLSSSYTSR [Peptide 5E-β]
Result string: 2+

====

ASSAYED_SYSTEM: ERβ (Homo sapiens)
METHOD_DESCRIPTION: Phage ELISA / fingerprint on ER immobilized on biotinylated ERE (Examples 2.3-2.5)
Assay type: binding
Set-up: purchased PanVera Corporation, Madison, WI; key: semiquantitative scale of 0 to 7+; 1+: semiquantitative scale of 0 to 7+; 2+: semiquantitative scale of 0 to 7+; 3+: semiquantitative scale of 0 to 7+; 4+: semiquantitative scale of 0 to 7+; 5+: semiquantitative scale of 0 to 7+; 6+: semiquantitative scale of 0 to 7+; semiquantitative scale of 0 to 7+
STATED_CONDITIONS: ERβ and buffer
ASSAY_READOUT: binding activity, ERβ and buffer

Look over these answered cases.
Query string: What value of binding activity, ERβ and buffer has been recorded for this entry: SSQEEWLLPWRLASR [Peptide 8t-β]
Result string: 7+

Query string: What do we get for SSRTLYCHLTSSNPEWCSR [Peptide 27E-β] ?
Result string: 6+

Query string: Subsequent entry: SSPGSREWFKDMLSR [Peptide 14t-β]
Result string: 3+

Query string: Proceed to SSAGLLEDMLRSRSR [Peptide 21E-β]
Result string: 3+

Query string: Same for SRPEGSSWLLHYLSR [Peptide 24E-β]
Result string: 5+

More entries:
Query string: Look up binding activity, ERβ and buffer for this sequence: SRNLLCLLDQEACSR [Peptide 17E-β]
Result string: 3+

Query string: Cool, now SSRLLCLLDAGQCSR [Peptide 16E-β]
Result string: 6+

Query string: Same for SREGLLMRLLIGDSR [Peptide 14E-β]
Result string: 5+

Query string: Next sequence: SRWWLDDHELLLYSSR [Peptide 26E-β]
Result string: 5+

Query string: Then what about the sequence SSPTGHRLLESLLLNSNSR [Peptide 8E-β] ?
Result string: 5+

Query string: What do you get for SSDLHRDCLGVWCLSR [Peptide 17t-β] ?
Result string: 7+

Query string: What about this sequence? SSISTYHMGEWFYAMLSSR [Peptide 22t-β]
Result string: 5+

Query string: And the next one, SSYDWQCPSWYCPAPPSSR [Peptide 29E-β] ?
Result string: 7+

Query string: Queued: SSTRLMCWLGSADTSHCSR [Peptide 28E-β]
Result string: 3+

Query string: Subsequent entry: SRLNGVFCHDSSDLWVCSR [Peptide 18t-β]
Result string: 6+

Query string: Try the sequence SSTTMFDFFYERLSR [Peptide 6t-β]
Result string: 7+

Query string: Now consider SSWNSREFFLSQLSR [Peptide 5t-β] and answer again.
Result string: 2+

Query string: Now give it for SSGPWLMHYLGGGSR [Peptide 7b-β] too.
Result string: 7+

Query string: And what about the sequence SSTSWLHHYLMGTSR [Peptide 8b-β] ?
Result string: 7+

Query string: Another sequence to look at: SRLEELLRVGVLTSR [Peptide 6E-β]
Result string: 3+

Query string: Another sequence to look at: SSILERLLGGGSAETV [Peptide 9E-β]
Result string: 4+
